# maps each entry to its Kd
Target: T1, CH2-4 constant domains of human IgE linked to a transmembrane protein, on 293 cells (human, UniProt P01854-1 104-428)
T1 construct: domain: CH2-4 constant domains; also called human IgE-expressing 293 cells
T1 sequence (P01854 other isoform, or with tags, fused parts or gaps): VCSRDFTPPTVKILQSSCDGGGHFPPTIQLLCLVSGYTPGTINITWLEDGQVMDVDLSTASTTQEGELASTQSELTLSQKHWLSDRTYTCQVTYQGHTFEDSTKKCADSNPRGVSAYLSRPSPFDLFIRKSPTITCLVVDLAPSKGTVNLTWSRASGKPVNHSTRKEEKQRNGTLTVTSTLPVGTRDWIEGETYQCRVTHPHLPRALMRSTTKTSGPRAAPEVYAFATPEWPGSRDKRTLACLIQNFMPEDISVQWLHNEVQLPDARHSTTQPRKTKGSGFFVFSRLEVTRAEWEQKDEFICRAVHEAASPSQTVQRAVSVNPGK
Test: flow cytometry, 293 cells expressing human IgE CH2-4
Numbers only; they are read as nM.

Exercise: Tell me the measured Kd of hzB10v14-NNT (Fc fusion, monomeric) VHH-Fc: EVQLLESGGGEVQPGGSLRLSCVASGLTFSSYNMGWLRQAPGKEREFVGLSGSSSTSTYYADSVKGRFTISRDNSKNTVYLQMNSLKPEDTAVYYCAARRLLSTYWSDRSWDFWGQGTQVTVEPGGPSVFLFPPKPKDTLMISRTPEVTCVVVDVSHEDPEVKFNWYVDGVEVHNAKTKPREEQYNSTYRVVSVLTVLHQDWLNGKEYKCKVSNKALPAPIEKTISKAKGQPREPQVYTLPPSRDELTKNQVNLTCLVKGFYPSDIAVEWESNGQPENNYKTTPPVLDSDGSFFLNSTLTVDKSRWQQGNVFSCSVMHEALHNHYTQKSLSLSPGK , please.
Solution: 2.11

Continue with the next binder.
Exercise: Tell me the measured Kd of hzB10v17-NNT (Fc fusion, monomeric) VHH-Fc: EVQLLESGGGEVQPGGSLRLSCVASGLTFSSYNMGWLRQAPGKEREFVGLSGSSSTSTYYADAVKGRFTISRDNSKNTVYLQMNSLKPEDTAVYYCAARRLLSTYWSDRSWDFWGQGTQVTVEPGGPSVFLFPPKPKDTLMISRTPEVTCVVVDVSHEDPEVKFNWYVDGVEVHNAKTKPREEQYNSTYRVVSVLTVLHQDWLNGKEYKCKVSNKALPAPIEKTISKAKGQPREPQVYTLPPSRDELTKNQVNLTCLVKGFYPSDIAVEWESNGQPENNYKTTPPVLDSDGSFFLNSTLTVDKSRWQQGNVFSCSVMHEALHNHYTQKSLSLSPGK , please.
Solution: 1.7
